biological target: RET (Homo sapiens, UniProt P07949); construct: purchased DiscoverX (KINOMEscan); assay: KINOMEscan competitive binding; details: n=1, read-out: Percent inhibition, RET
Sequence (P07949 29-1114): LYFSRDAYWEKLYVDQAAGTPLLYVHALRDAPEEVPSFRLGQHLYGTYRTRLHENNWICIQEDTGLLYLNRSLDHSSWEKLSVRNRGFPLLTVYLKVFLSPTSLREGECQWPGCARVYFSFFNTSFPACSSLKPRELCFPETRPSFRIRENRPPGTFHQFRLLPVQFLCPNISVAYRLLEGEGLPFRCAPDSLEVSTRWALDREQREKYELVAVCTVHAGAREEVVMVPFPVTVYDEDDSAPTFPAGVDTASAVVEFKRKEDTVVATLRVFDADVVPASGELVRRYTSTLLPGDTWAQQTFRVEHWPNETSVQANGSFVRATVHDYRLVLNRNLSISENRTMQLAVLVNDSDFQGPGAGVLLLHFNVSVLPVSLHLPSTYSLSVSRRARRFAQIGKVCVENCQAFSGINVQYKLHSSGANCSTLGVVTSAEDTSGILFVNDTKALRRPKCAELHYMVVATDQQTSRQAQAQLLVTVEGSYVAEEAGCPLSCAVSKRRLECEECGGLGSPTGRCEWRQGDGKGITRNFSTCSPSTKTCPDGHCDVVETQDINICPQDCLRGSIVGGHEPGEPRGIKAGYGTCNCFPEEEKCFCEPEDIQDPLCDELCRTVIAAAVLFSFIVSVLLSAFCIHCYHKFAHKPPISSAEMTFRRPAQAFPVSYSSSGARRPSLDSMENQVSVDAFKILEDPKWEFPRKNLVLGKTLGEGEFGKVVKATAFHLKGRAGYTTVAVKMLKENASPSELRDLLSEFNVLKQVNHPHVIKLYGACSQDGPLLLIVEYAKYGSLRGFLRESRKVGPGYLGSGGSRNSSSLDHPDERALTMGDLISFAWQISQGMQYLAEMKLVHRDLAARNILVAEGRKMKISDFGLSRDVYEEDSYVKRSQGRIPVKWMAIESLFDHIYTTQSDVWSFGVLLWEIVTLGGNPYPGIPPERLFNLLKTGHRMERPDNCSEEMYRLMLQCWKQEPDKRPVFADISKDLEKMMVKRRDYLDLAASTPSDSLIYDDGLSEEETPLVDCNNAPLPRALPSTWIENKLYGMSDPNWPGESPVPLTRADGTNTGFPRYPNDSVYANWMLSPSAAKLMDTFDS
Property: inhibition at 10 µM; scope: individual compounds
Unit % implied. Number only.

| compound | value |
| --- | --- |
| Cc1ccc(O)cc1Nc1ccnc(Nc2cccc(C(N)=O)c2)n1 [Compound 3] | 100 |

Entry Cc1ccc(O)cc1N(C)c1ccnc(Nc2cccc(S(N)(=O)=O)c2)n1 [Compound 4] ; inhibition at 10 µM = 100

Entry c1ccc(COc2cccc(-c3ccnc4[nH]ccc34)c2)cc1 [Compound 9] ; inhibition at 10 µM = 0

Entry Nc1ncc2c(-c3ccncc3)c[nH]c2n1 [Compound 11] ; inhibition at 10 µM = 0

Entry CN1CCN(c2ccc(Nc3nccc(-c4cnn5ncccc45)n3)cc2C#N)CC1 [Compound 1] ; inhibition at 10 µM = 89.8

---

target: panel of 203 kinases (Homo sapiens, UniProt P21802); construct: purchased DiscoverX (KINOMEscan); assay: KINOMEscan competitive binding, whole panel; conditions: 10 µM, n=1; kinase FGFR2; read-out: Percent inhibition FGFR2
Sequence (P21802 22-821): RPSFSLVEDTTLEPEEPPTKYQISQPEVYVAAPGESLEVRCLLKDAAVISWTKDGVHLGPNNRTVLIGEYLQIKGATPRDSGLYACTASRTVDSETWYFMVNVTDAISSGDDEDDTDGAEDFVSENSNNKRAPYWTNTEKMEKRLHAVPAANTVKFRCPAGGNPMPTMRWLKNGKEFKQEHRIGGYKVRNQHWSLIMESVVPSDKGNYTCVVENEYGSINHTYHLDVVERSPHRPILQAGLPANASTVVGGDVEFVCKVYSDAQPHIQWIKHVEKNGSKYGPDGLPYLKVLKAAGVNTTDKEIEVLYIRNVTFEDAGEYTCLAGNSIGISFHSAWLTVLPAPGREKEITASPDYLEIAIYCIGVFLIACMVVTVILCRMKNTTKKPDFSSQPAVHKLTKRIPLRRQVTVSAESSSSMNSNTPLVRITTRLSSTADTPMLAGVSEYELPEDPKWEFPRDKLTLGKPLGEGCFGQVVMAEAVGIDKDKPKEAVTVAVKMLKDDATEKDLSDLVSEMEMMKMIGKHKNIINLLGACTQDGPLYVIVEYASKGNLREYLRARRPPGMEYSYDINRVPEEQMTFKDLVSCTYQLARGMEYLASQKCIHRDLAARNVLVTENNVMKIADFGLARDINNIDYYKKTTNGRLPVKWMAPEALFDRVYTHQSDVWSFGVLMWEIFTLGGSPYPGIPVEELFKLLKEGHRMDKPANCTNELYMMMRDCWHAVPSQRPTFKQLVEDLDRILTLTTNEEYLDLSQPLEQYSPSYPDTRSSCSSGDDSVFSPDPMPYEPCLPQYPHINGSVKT
Property: inhibition at 10 µM; scope: individual compounds
Quick note: unit goes after the number.

| compound | inhibition at 10 µM |
| --- | --- |
| COc1cc(Nc2nccc(-c3sc(N)nc3-c3cccc(NC(=O)c4c(F)cccc4F)c3)n2)cc(OC)c1OC [Compound 7] | 100% |
| c1ccc(COc2cccc(-c3ccnc4[nH]ccc34)c2)cc1 [Compound 9] | 0% |
| Nc1ncc2c(-c3ccncc3)c[nH]c2n1 [Compound 11] | 0% |
| Fc1cccc(COc2ccc(Nc3ncnc4c3CN(CCN3CCOCC3)CC4)cc2Cl)c1 [Compound 6] | 0% |
| C[C@@H](Oc1cc(-c2cnc3ccccn23)sc1C(N)=O)c1ccccc1Cl [Compound 8] | 0% |

Entry Cc1ccc(O)cc1Nc1ccnc(Nc2cccc(C(N)=O)c2)n1 [Compound 3] ; inhibition at 10 µM = 0%

---

target: panel of 203 kinases (Homo sapiens); construct: purchased DiscoverX (KINOMEscan); assay: KINOMEscan competitive binding, whole panel; settings: 10 µM, n=1; kinase CSF1R; read-out: Percent inhibition CSF1R
reported.metric: inhibition at 10 µM (%)
Unit % implied. Number only.

Example compounds with recorded inhibition at 10 µM:
| compound | readout.units | inhibition at 10 µM |
| --- | --- | --- |
| c1ccc(COc2cccc(-c3ccnc4[nH]ccc34)c2)cc1 [Compound 9] | % | 0 |
| Fc1cccc(COc2ccc(Nc3ncnc4c3CN(CCN3CCOCC3)CC4)cc2Cl)c1 [Compound 6] | % | 0 |
| C[C@@H](Oc1cc(-c2cnc3ccccn23)sc1C(N)=O)c1ccccc1Cl [Compound 8] | % | 0 |
| Clc1ccc(Nc2ncc(-c3ccccc3)s2)cc1 [Compound 10] | % | 0 |

Would you kindly look at the next entry?
Entry COc1cc(Nc2nccc(-c3sc(N)nc3-c3cccc(NC(=O)c4c(F)cccc4F)c3)n2)cc(OC)c1OC [Compound 7] ; inhibition at 10 µM = 100

---

molecular target: panel of 203 kinases (Homo sapiens, UniProt P36896); construct: purchased DiscoverX (KINOMEscan); test: KINOMEscan competitive binding, whole panel; conditions: 10 µM, n=1; kinase ACVR1B; read-out: Percent inhibition ACVR1B
Sequence (P36896 24-505): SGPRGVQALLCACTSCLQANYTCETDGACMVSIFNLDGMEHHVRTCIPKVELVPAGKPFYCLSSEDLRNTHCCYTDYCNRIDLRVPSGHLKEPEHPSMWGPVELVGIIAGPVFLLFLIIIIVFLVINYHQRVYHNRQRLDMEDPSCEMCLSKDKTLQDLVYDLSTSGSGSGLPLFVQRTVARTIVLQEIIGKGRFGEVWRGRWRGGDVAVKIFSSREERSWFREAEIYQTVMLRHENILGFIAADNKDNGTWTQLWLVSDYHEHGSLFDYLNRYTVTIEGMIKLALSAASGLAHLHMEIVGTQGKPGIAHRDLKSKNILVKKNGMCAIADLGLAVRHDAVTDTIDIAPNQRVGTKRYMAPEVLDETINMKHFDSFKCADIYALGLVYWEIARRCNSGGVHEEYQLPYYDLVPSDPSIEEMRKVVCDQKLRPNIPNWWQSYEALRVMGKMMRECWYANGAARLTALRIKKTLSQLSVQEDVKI
reported.metric: inhibition at 10 µM (%)
Unit % implied. Number only.

Example compounds with recorded inhibition at 10 µM:
| sample.smiles | readout.units | value |
| --- | --- | --- |
| COc1ccc(Nc2nccc(-c3cnn4ncccc34)n2)cc1 | % | 0 |
| CN1CCN(c2ccc(Nc3nccc(-c4cnn5ncccc45)n3)cc2C#N)CC1 | % | 77.1 |
| Nc1ncc2c(-c3ccncc3)c[nH]c2n1 | % | 0 |
| Fc1cccc(COc2ccc(Nc3ncnc4c3CN(CCN3CCOCC3)CC4)cc2Cl)c1 | % | 0 |
| COc1cc(Nc2nccc(-c3sc(N)nc3-c3cccc(NC(=O)c4c(F)cccc4F)c3)n2)cc(OC)c1OC | % | 74.9 |
| Clc1ccc(Nc2ncc(-c3ccccc3)s2)cc1 | % | 0 |
| Cc1ccc(O)cc1Nc1ccnc(Nc2cccc(C(N)=O)c2)n1 | % | 96.5 |
| c1ccc(COc2cccc(-c3ccnc4[nH]ccc34)c2)cc1 | % | 0 |
| C[C@@H](Oc1cc(-c2cnc3ccccn23)sc1C(N)=O)c1ccccc1Cl | % | 0 |

Lab entry: panel of 203 kinases (Homo sapiens, UniProt P36896) assay, compound `Cc1ccc(O)cc1N(C)c1ccnc(Nc2cccc(S(N)(=O)=O)c2)n1` , inhibition at 10 µM = 99
